# protocol-text: AUC(last) in beagle dog at 75 mg/kg, po
# Format: ADME, organism-based, Canis lupus familiaris
# Parameters: time 0 - last, dose 75 mg/kg, route oral
# condition-description: plasma

{"columns": ["chemical-structure", "readout-units", "AUC(0-t)"],
 "data": [
  ["COC(=O)N[C@H](C(=O)N1CCC[C@H]1c1ncc(-c2ccc3c(c2)Oc2ccc(-c4cnc([C@@H]5CCCN5C(=O)[C@@H](NC(=O)OC)C(C)C)[nH]4)cc2C3(C)C)[nH]1)C(C)C", "ng·h/mL", 83000]
]}

---

# protocol-text: AUC(last) in Sprague-Dawley rat at 1 mg/kg, iv
# Assay type: ADME, organism-based, Plasma
# Design: time 0 - last, dose 1 mg/kg, route intravenous
# condition-description: Sprague-Dawley, plasma
Items are presented alongside their recorded AUC(0-t).

{"columns": ["chemical-structure", "AUC(0-t) [ng·h/mL]"],
 "data": [
  ["COC(=O)N[C@H](C(=O)N1CCC[C@H]1c1ncc(-c2ccc3c(c2)Cc2ccc(-c4cnc([C@@H]5CCCN5C(=O)[C@@H](NC(=O)OC)C(C)C)[nH]4)cc2O3)[nH]1)C(C)C", 1060],
  ["COC(=O)N[C@H](C(=O)N1CCC[C@H]1c1ncc(-c2ccc3c(c2)Oc2ccc(-c4cnc([C@@H]5CCCN5C(=O)[C@@H](NC(=O)OC)C(C)C)[nH]4)cc2C3(C)C)[nH]1)C(C)C", 926],
  ["COC(=O)N[C@H](C(=O)N1CCC[C@H]1c1ncc(-c2ccc3c(c2)Oc2ccc(-c4cnc([C@@H]5CCCN5C(=O)[C@@H](NC(=O)OC)C(C)C)[nH]4)cc2O3)[nH]1)C(C)C", 2570]
]}

Values from ChEMBL document CHEMBL3351732
